system.under.test: MDR1 (ABCB1) (Homo sapiens, UniProt P08183)
Sequence (P08183 whole entry): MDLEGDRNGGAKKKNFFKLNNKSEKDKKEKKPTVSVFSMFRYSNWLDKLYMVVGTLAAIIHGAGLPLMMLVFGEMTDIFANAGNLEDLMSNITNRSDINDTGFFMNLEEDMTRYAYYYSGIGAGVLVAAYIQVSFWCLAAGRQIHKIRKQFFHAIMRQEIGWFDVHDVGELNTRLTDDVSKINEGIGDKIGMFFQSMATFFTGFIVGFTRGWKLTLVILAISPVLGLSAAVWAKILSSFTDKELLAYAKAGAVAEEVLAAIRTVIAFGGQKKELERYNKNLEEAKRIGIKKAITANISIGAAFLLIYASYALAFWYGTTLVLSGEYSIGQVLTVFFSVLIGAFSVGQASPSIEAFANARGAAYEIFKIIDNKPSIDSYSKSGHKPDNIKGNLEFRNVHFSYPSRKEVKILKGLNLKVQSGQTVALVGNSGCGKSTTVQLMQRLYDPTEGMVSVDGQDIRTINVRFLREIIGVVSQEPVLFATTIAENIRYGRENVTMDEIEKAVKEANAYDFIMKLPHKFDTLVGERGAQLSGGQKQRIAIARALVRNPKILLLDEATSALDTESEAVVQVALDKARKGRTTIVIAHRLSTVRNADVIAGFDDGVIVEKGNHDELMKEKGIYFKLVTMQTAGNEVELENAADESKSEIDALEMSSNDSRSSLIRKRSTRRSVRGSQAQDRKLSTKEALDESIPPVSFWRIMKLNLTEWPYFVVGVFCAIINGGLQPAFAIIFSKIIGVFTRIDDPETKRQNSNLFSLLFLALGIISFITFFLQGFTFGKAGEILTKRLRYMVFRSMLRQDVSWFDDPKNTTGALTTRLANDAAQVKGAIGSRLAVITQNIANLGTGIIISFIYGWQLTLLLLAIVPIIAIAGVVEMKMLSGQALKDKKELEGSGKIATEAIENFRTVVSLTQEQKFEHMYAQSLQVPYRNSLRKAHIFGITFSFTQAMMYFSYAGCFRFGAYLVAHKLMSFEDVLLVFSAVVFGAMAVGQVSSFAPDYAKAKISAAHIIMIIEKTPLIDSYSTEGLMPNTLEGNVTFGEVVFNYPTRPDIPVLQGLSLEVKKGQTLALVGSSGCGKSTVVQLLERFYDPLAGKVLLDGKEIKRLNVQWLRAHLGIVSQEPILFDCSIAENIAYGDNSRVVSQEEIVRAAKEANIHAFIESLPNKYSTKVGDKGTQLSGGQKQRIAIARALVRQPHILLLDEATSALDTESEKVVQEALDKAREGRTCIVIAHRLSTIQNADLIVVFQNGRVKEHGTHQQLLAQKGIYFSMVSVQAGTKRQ
method: DNDI: % of compound recovered from membrane of apical to basolateral permeability assay in MDCK cells transfected with human MDR1 after 60 mins at a concentration of 3uM in the presence of GF120918
Assay type: ADME, cell-based, Canis lupus familiaris
condition.label: dog, MDCK-MDR1, with GF120918 (concentration not stated); read-out: Mem Rec
quantity: recovery at 1 h, 3 µM (%)
Write the number in % without appending the unit.

**Query** For the compound `CC(C)(C)c1cc(N2CCNCC2)n2nc(-c3ccc(F)cc3)cc2n1` , give its measured recovery at 1 h, 3 µM value.
**Result** 76.1
